Where do these numbers come from? They come from ChEMBL document CHEMBL1132973.

System: Haemophilus influenzae
methodDescription: In vitro antibacterial activity against Haemophilus influenzae strain DILL.
Type: functional
Documented MIC across a set of compounds

Prompt: Provide one value: measured MIC of CC[C@H]1OC(=O)[C@H](C)C(=O)[C@H](C)[C@@H](O[C@@H]2O[C@H](C)C[C@H](N(C)C)[C@H]2O)[C@](C)(OC/C=C/c2ccccc2)C[C@@H](C)C(=O)[C@H](C)[C@@H](O)[C@]1(C)O
Response: 128 µg/mL

Prompt: Provide one value: measured MIC of CC[C@H]1OC(=O)[C@H](C)C(=O)[C@H](C)[C@@H](O[C@@H]2O[C@H](C)C[C@H](N(C)C)[C@H]2O)[C@](C)(OC/C=C/c2ccccc2)C[C@@H](C)C(=O)[C@H](C)[C@H]2NC(=O)O[C@@]21C
Response: 4 µg/mL

Prompt: Provide one value: measured MIC of CC[C@H]1OC(=O)[C@H](C)[C@@H](O[C@H]2C[C@@](C)(OC)[C@@H](O)[C@H](C)O2)[C@H](C)[C@@H](O[C@@H]2O[C@H](C)C[C@H](N(C)C)[C@H]2O)[C@](C)(O)C[C@@H](C)C(=O)[C@H](C)[C@@H](O)[C@]1(C)O
Response: 8 µg/mL

Prompt: Provide one value: measured MIC of C=CCO[C@@]1(C)C[C@@H](C)C(=O)[C@H](C)[C@H]2NC(=O)O[C@]2(C)[C@@H](CC)OC(=O)[C@H](C)C(=O)[C@H](C)[C@H]1O[C@@H]1O[C@H](C)C[C@H](N(C)C)[C@H]1O
Response: 64 µg/mL

Prompt: Provide one value: measured MIC of CC[C@H]1OC(=O)[C@H](C)C(=O)[C@H](C)[C@@H](O[C@@H]2O[C@H](C)C[C@H](N(C)C)[C@H]2O)[C@@](C)(OC/C=C/c2cnc3ccccc3c2)C[C@@H](C)C(=O)[C@H](C)[C@@H](O)[C@]1(C)O
Response: 16 µg/mL

Prompt: Provide one value: measured MIC of CC[C@H]1OC(=O)[C@H](C)C(=O)[C@H](C)[C@@H](O[C@@H]2O[C@H](C)C[C@H](N(C)C)[C@H]2O)[C@](C)(OCC=Cc2cnc3ccccc3c2)C[C@@H](C)C(=O)[C@H](C)[C@H]2NC(=O)O[C@@]21C
Response: 2 µg/mL

Prompt: Provide one value: measured MIC of C=CCO[C@@]1(C)C[C@@H](C)C(=O)[C@H](C)[C@@H](O)[C@](C)(O)[C@@H](CC)OC(=O)[C@H](C)C(=O)[C@H](C)[C@H]1O[C@@H]1O[C@H](C)C[C@H](N(C)C)[C@H]1O
Response: > 128 µg/mL
